tested on: crabgrass, large (large crabgrass, Digitaria sanguinalis); test: Test C greenhouse herbicide test, pre- and postemergence; assay type: in vivo; details: Postemergence, 125 g ai/ha; scale 0 to 100, 0 is no effect, 100 is complete control
Criterion: Plant response rating, Crabgrass, Large strictly less than 40. Met: Satisfied. Not met: Not satisfied.

* CC(=O)Oc1c(C)nn(C)c(=O)c1-c1ccc(F)c2ccccc12 | Satisfied
* Cc1nn(C)c(=O)c(-c2c(C)sc3ccc(Cl)cc23)c1O | Satisfied
* Cc1nn(C)c(=O)c(-c2ccc(F)c3ccccc23)c1OC(=O)CC(F)(F)F | Satisfied
* CCC(=O)Oc1c(C)nn(C)c(=O)c1-c1c(C)sc2ccc(Cl)cc12 | Not satisfied
* COc1nn(C)c(=O)c(-c2c(C)ccc3ccccc23)c1OC(=O)OC(C)C | Satisfied

// provenance: patent US10597388B2
